Assay: Stability in mouse plasma assessed as half life at 10 uM measured up to 360 mins by LC-MS/MS analysis
Type: ADME, cell-free
RESULT_TYPE: half-life at 10 µM

molecule=Cl.Cl.NCCc1nc(-c2cnc(N3CCNCC3)c(Cl)c2)no1 value_measured="> 6 h"
molecule=Clc1cc(I)cnc1N1CCNCC1 value_measured="> 6 h"

---

Tested on: Escherichia coli
Experiment: Inhibition of AcrB Asp951Asn mutant in Escherichia coli BW25113 assessed as potentiation of pyridomycin-induced antibacterial activity incubated for 20 hrs by resazurin microtitre assay
Measured EC90 by item
RESULT_TYPE: EC90 (µM)

molecule=NCc1cccc(COc2cnc(N3CCNCC3)c(Cl)c2)c1 unit_abbrev=µM bound_sign== value_measured=250
molecule=NCCCc1nc(-c2cnc(N3CCNCC3)c(Cl)c2)no1 unit_abbrev=µM bound_sign=> value_measured=250
molecule=NCc1nc(-c2cnc(N3CCNCC3)c(Cl)c2)no1 unit_abbrev=µM bound_sign== value_measured=250
molecule=Cl.Cl.NCc1cccc(OC(=O)c2cnc(N3CCNCC3)c(Cl)c2)c1 unit_abbrev=µM bound_sign== value_measured=62
molecule=NCCc1ccc(OC(=O)c2cnc(N3CCNCC3)c(Cl)c2)cc1 unit_abbrev=µM bound_sign== value_measured=23
molecule=NCc1cccc(OCc2cnc(N3CCNCC3)c(Cl)c2)c1 unit_abbrev=µM bound_sign=> value_measured=250
molecule=Cl.Cl.NCCc1nc(-c2cnc(N3CCNCC3)c(Cl)c2)no1 unit_abbrev=µM bound_sign=> value_measured=250
molecule=O=C(Oc1cccc(CO)c1)c1cnc(N2CCNCC2)c(Cl)c1 unit_abbrev=µM bound_sign== value_measured=62

---

Assay: Stability in CD-1 mouse liver microsomes assessed as half life at 1 uM measured up to 40 mins by LC-MS/MS analysis
Assay type: ADME, Microsome
Documented half-life at 1 µM across a set of compounds
RESULT_TYPE: half-life at 1 µM (min)

molecule=Clc1cc(I)cnc1N1CCNCC1 bound_sign== value_measured=9
molecule=Cl.Cl.NCCc1nc(-c2cnc(N3CCNCC3)c(Cl)c2)no1 bound_sign=> value_measured=40

---

Target: Multidrug efflux pump subunit AcrB (Escherichia coli (strain K12)) (UniProt P31224)
Sequence (P31224 whole entry): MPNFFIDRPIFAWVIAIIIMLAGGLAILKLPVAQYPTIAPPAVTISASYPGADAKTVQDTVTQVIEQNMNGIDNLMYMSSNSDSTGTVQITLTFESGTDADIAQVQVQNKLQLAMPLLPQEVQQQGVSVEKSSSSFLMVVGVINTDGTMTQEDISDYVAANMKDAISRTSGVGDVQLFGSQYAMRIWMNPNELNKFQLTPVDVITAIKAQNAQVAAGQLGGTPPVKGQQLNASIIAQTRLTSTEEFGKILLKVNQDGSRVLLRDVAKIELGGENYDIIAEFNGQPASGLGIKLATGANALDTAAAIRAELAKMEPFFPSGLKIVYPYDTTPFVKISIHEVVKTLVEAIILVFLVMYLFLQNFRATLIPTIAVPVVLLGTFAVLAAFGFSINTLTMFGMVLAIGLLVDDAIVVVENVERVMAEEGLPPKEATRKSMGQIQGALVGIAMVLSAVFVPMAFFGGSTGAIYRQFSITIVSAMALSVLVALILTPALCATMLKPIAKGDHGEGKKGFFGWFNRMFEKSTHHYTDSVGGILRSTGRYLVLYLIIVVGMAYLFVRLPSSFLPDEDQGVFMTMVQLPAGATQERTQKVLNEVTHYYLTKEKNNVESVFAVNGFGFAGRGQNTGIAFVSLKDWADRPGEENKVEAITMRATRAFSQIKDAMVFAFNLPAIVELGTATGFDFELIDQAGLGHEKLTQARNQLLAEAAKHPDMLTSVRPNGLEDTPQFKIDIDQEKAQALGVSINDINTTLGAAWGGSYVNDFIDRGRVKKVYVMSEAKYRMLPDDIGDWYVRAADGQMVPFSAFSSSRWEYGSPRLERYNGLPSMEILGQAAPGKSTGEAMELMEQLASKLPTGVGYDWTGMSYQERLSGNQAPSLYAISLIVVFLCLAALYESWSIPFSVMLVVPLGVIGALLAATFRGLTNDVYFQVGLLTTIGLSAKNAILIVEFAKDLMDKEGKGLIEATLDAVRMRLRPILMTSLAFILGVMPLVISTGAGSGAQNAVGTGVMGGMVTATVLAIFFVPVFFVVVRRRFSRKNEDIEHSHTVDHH
Assay: Inhibition of AcrB in Escherichia coli BW25113 assessed as potentiation of pyridomycin-induced antibacterial activity incubated for 20 hrs by resazurin microtitre assay
Quick list: EC90 per entry.
RESULT_TYPE: EC90 (µM)

molecule=O=C(Oc1ccccc1)c1cnc(N2CCNCC2)c(Cl)c1 experimental_target="Multidrug efflux pump subunit AcrB (Escherichia coli (strain K12)) (UniProt P31224)" result_type=EC90 bound_sign== value_measured=23
molecule=O=C(OCCCc1ccccc1)c1cnc(N2CCNCC2)c(Cl)c1 experimental_target="Multidrug efflux pump subunit AcrB (Escherichia coli (strain K12)) (UniProt P31224)" result_type=EC90 bound_sign== value_measured=250
molecule=Cl.Cl.NCCc1nc(-c2cnc(N3CCNCC3)c(Cl)c2)no1 experimental_target="Multidrug efflux pump subunit AcrB (Escherichia coli (strain K12)) (UniProt P31224)" result_type=EC90 bound_sign== value_measured=8
molecule=CC(=O)Nc1cnc(N2CCNCC2)c(Cl)c1 experimental_target="Multidrug efflux pump subunit AcrB (Escherichia coli (strain K12)) (UniProt P31224)" result_type=EC90 bound_sign== value_measured=187
molecule=Cc1nc(-c2cnc(N3CCNCC3)c(Cl)c2)cs1 experimental_target="Multidrug efflux pump subunit AcrB (Escherichia coli (strain K12)) (UniProt P31224)" result_type=EC90 bound_sign== value_measured=187
molecule=O=C(Oc1cccc(CO)c1)c1cnc(N2CCNCC2)c(Cl)c1 experimental_target="Multidrug efflux pump subunit AcrB (Escherichia coli (strain K12)) (UniProt P31224)" result_type=EC90 bound_sign== value_measured=26
molecule=NCc1cccc(NC(=O)c2cnc(N3CCNCC3)c(Cl)c2)c1 experimental_target="Multidrug efflux pump subunit AcrB (Escherichia coli (strain K12)) (UniProt P31224)" result_type=EC90 bound_sign== value_measured=156
molecule=Cc1nnc(-c2cnc(N3CCNCC3)c(Cl)c2)o1 experimental_target="Multidrug efflux pump subunit AcrB (Escherichia coli (strain K12)) (UniProt P31224)" result_type=EC90 bound_sign== value_measured=187
molecule=OCc1cc(C(F)(F)F)cnc1N1CCNCC1 experimental_target="Multidrug efflux pump subunit AcrB (Escherichia coli (strain K12)) (UniProt P31224)" result_type=EC90 bound_sign=> value_measured=500
molecule=CNC(=O)c1cnc(N2CCNCC2)c(Cl)c1 experimental_target="Multidrug efflux pump subunit AcrB (Escherichia coli (strain K12)) (UniProt P31224)" result_type=EC90 bound_sign=> value_measured=250
molecule=FC(F)(F)c1cnc(N2CCNCC2)c(Br)c1 experimental_target="Multidrug efflux pump subunit AcrB (Escherichia coli (strain K12)) (UniProt P31224)" result_type=EC90 bound_sign== value_measured=16
molecule=NCc1cccc(COc2cnc(N3CCNCC3)c(Cl)c2)c1 experimental_target="Multidrug efflux pump subunit AcrB (Escherichia coli (strain K12)) (UniProt P31224)" result_type=EC90 bound_sign== value_measured=10
